PROTOCOL: Primary qHTS for inhibitors of SARS-S pseudo-typed particle cell entry (AID 1479145); further: nearly all actives have a fitted effect of over 45% in size
CONDITION_INFO: SARS-S pseudotyped particle cell entry, luciferase reporter; series mostly up to 57.1 µM
Records with an inconclusive call do not appear. Calls of active or inactive are those of the source. The call rests on the fitted dose curve.
Give one outcome, nothing more. List: active, inactive

molecule=O=C(O)CCNC(=O)c1ccccc1 label_class=inactive
molecule="N#Cc1nn(-c2c(Cl)cc(C(F)(F)F)cc2Cl)c(N)c1S(=O)C(F)(F)F (configuration not stated)" label_class=inactive
molecule=O=C(O)CCC(=O)OC[C@@H](NC(=O)C(Cl)Cl)[C@H](O)c1ccc([N+](=O)[O-])cc1 label_class=inactive
molecule="CC(C)(C)NCC(O)COc1cccc2c1CCC(=O)N2 (configuration not stated)" label_class=inactive
molecule=OC[C@H]1O[C@@H](n2cnc3c(=S)nc[nH]c32)[C@H](O)[C@@H]1O label_class=inactive
molecule="C[C@H](N)C(=O)N[C@@H](C)C(=O)NC1[C@H]2CN(c3nc4c(cc3F)c(=O)c(C(=O)O)cn4-c3ccc(F)cc3F)C[C@@H]12 (some centres not stated)" label_class=inactive
molecule=Cc1nnc2n1-c1sc(CCC(=O)N3CCOCC3)cc1C(c1ccccc1Cl)=NC2 label_class=inactive
molecule=CCOc1c(N2CCOCC2)cnn(C)c1=O label_class=inactive

So what was the verdict on CN(C)c1ccc(C(=C2C=CC(=[N+](C)C)C=C2)c2ccccc2)cc1 in this test?
active

So what was the verdict on CN(C)CCn1nnnc1SCC1=C(C(=O)O)N2C(=O)[C@@H](NC(=O)Cc3csc(N)n3)[C@H]2SC1 in this test?
inactive

So what was the verdict on CCO[C@@H]1O[C@H](C(COCc2ccccc2)OCc2ccccc2)[C@H](OCc2ccccc2)[C@H]1O (some centres not stated) in this test?
inactive

So what was the verdict on OC(CCN1CCCCC1)(c1ccccc1)C1CC2C=CC1C2 (configuration not stated) in this test?
inactive

So what was the verdict on Nc1ccc(C(=O)NCC(=O)O)cc1 in this test?
inactive

So what was the verdict on Cc1cc(O)c(C(C)C)cc1Cl in this test?
inactive

So what was the verdict on COc1cc(OC)cc(OC)c1 in this test?
inactive

So what was the verdict on C[C@@H]1O[C@@H](O[C@@H]2C=C3CC[C@@H]4[C@H](CC[C@]5(C)[C@@H](c6ccc(=O)oc6)CC[C@]45O)[C@@]3(C)CC2)[C@H](O)[C@H](O)[C@H]1O in this test?
inactive

So what was the verdict on CN(C)c1ccc(C(=C2C=CC(=[N+](C)C)C=C2)c2ccc(N(C)C)cc2)cc1 in this test?
active

So what was the verdict on c1ccc([C@H]2CN3CCSC3=N2)cc1 in this test?
inactive

So what was the verdict on NS(=O)(=O)c1ccc(N2CCCCS2(=O)=O)cc1 in this test?
inactive

So what was the verdict on CCN(CC)CC(=O)Nc1c(C)cccc1C(=O)OC in this test?
inactive

So what was the verdict on CC(=O)/C=C/C=C1/C2CCC(C2)C1(C)C (configuration not stated) in this test?
inactive

So what was the verdict on CCOC(=O)C1(c2ccccc2)CCN(CCc2ccc(N)cc2)CC1 in this test?
inactive

====

PROTOCOL: Cell Viability - LYMP2-013 (AID 970);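 further: cells exposed to compound for 24 h at 37 °C; 0% = DMSO only and full inhibition = tetraoctylammonium bromide control; nearly all actives have a fitted effect of over 55% in size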
CONDITION_INFO: LYMP2-013 lymphoblastoid cells viability; series mostly up to 92.2 µM
Results filed as inconclusive are left out. Activity calls are given as the source filed them. Calls follow the shape of the dose curve; as a rule, active = well fitted cell-killing curve with a large enough effect; inconclusive = small, poorly fitted or top-dose-only effect; inactive = flat fitted curve, though single readings scatter.
Give one outcome, nothing more. List: 1 for active, 0 for inactive

So what was the verdict on COP(=O)(OC)OC=C(Cl)Cl in this test?
0
